experiment: Formation of 1,5-cz-[Ln(Lig)] from Lig and Ln^III ions (metal dependent click-zip), MOPS/NaOH buffer pH 7.0, analytical HPLC (Charts 1, 2); settings: Tb^III; after 1 hour at 80° C.; MOPS/NaOH buffer pH 7.0
conversion to 1,5-cz-[Ln(Lig)], Tb^III less than 6% is Criterion met; conversion to 1,5-cz-[Ln(Lig)], Tb^III greater than or equal to 6% is Criterion not met.

# smiles_repr, assigned_category
data = [
    ("C#Cc1cccc(CN2CCN(CC(=O)O)CCN(Cc3cccc(CN=[N+]=[N-])n3)CCN(CC(=O)O)CC2)n1", "Criterion not met"),
    ("CC(C)(C)C#Cc1cccc(CN2CCN(CC(=O)O)CCN(Cc3cccc(CN=[N+]=[N-])n3)CCN(CC(=O)O)CC2)n1", "Criterion met"),
    ("C#Cc1cccc(CN2CCN(CC(=O)O)CCN(Cc3cc(-c4ccc(C(=O)O)cc4)cc(CN=[N+]=[N-])n3)CCN(CC(=O)O)CC2)n1", "Criterion not met"),
    ("[N-]=[N+]=NCc1cccc(CN2CCN(CC(=O)O)CCN(Cc3cccc(C#Cc4ccccc4)n3)CCN(CC(=O)O)CC2)n1", "Criterion met"),
    ("[N-]=[N+]=NCc1cc(-c2ccccc2)cc(CN2CCN(CC(=O)O)CCN(Cc3cccc(C#CCN)n3)CCN(CC(=O)O)CC2)n1", "Criterion met"),
]
